Reference source: patent US20220332795A1

Apical domain, RLU values, listed per item
MEASURED TARGET: T1, CD71 apical domain (UniProt P02786 189-383, limits assumed)
T1 construct: domain: Apical domain
T1 sequence (P02786 189-383 limits assumed): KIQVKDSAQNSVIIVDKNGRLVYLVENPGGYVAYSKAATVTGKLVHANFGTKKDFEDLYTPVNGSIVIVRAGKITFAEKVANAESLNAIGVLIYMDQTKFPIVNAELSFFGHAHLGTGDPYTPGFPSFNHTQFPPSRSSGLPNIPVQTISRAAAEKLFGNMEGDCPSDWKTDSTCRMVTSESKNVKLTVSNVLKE
PROTOCOL TEXT: solution ELISA
Answer format: numeric, RLU implied, no suffix.

Output Apical domain, RLU of SEQ ID NO 173 (designed binder, FN3 domain) MLPAPKNLVVSRVTEDSARLSWTAPDAAFDSFHIVYHEPRPSGEAIHLQVPGSERSYDLTGLKPGTEYNVTIQGVKGGFPSYPLSAFFTT
1.8e+06

Output Apical domain, RLU of SEQ ID NO 155 (designed binder, FN3 domain) MLPAPKNLVVSRVTEDSARLSWTAPDAAFDSFYIAYAEPRPDGEAIWLVVPGSERSYDLTGLKPGTEYSVLIHGVKGGLLSSPLHARFTT
4.86e+06

Output Apical domain, RLU of SEQ ID NO 153 (designed binder, FN3 domain) MLPAPKNLVVSRVTEDSARLSWTAPDAAFDSFYIAYAEPRPDGEAIALHVPGSERSYDLTGLKPGTEYSVLIHGVKGGLLSSPLSAIFTT
3.96e+06

Output Apical domain, RLU of SEQ ID NO 194 (designed binder, FN3 domain) MLPAPKNLVVSRVTEDSARLSWTAPDAAFDSFYIAYAEPRPDGEAIALLVPGSERSYDLTGLKPGTEYSVLIHGVKGGLLSSPLSAIVTT
4.78e+06
